Exercise: for every item that follows, state its recorded cell viability.
- Test system: Calu-3
- experimentNotes: cell viability relative to DMSO; higher = less toxic
- testConditions: 72 h; 100 nM
Give bare numbers, in %.

Past entries and their recorded results:
1. COc1cc(OC)c(C(=O)CCCCN2CCC3(CC2)NC(=O)NC3=O)cc1NS(=O)(=O)c1ccc(C(F)(F)F)cc1 | 81.2
2. FC(F)(F)c1cccc(C2=CCN(CCc3ccc4ccccc4c3)CC2)c1 [xaliproden] | 95.5
3. COc1cc2nc(N3CCN(C(=O)COc4c(OC)cccc4C(C)C)CC3)nc(N)c2cc1OC [Rec-15/2615] | 97.3
4. CC(C)[C@]12O[C@H]1[C@@H]1O[C@]13[C@]1(O[C@H]1C[C@H]1C4=C(CC[C@@]13C)C(=O)OC4)[C@@H]2O [triptolide] | 25.8

# map each molecule to its cell viability
1. CCO[C@@H]1OC(=O)C[C@@H]1NC(=O)[C@@H]1CCCN1C(=O)[C@@H](NC(=O)c1ccc(N)c(Cl)c1)C(C)(C)C [VX-765]
2. [NH-]c1c[n+](N2CCOCC2)no1 [linsidomine]

1: 90.5; 2: 105

For every item below, please supply its cell viability.
1. CC1=C(C)C(=O)C(C(CCCCCC(=O)O)c2ccccc2)=C(C)C1=O (stereo unspecified) [seratrodast]
2. CC(=O)N(CC(O)CN(C(C)=O)c1c(I)c(C(=O)NCC(O)CO)c(I)c(C(=O)NCC(O)CO)c1I)c1c(I)c(C(=O)NCC(O)CO)c(I)c(C(=O)NCC(O)CO)c1I (stereo unspecified) [iodixanol]
3. C=CC1=C(C)c2cc3[nH]c(cc4nc(cc5[nH]c(cc1n2)c(C)c5CCC(=O)O)C(CCC(=O)O)=C4C)c(C)c3C=C [protoporphyrin-IX]
4. O=P1(NCCCl)OCCCN1CCCl (stereo unspecified) [ifosfamide]
5. O=C(c1ccc(OCCN2CCCCC2)cc1)c1c(-c2ccc(O)cc2)sc2cc(O)ccc12 [raloxifene]
6. COC(=O)C1=C(C)NC(C)=C(C(=O)NCCCN2CCC(c3ccccc3)(c3ccccc3)CC2)C1c1ccc([N+](=O)[O-])cc1 (stereo unspecified) [SNAP-5089]
7. Cc1ccc(=O)n(-c2ccccc2)c1 [pirfenidone]

1: 99; 2: 95.9; 3: 105; 4: 97.7; 5: 98.1; 6: 92.3; 7: 107

// each molecule listed below needs its cell viability
1. Cc1ccccc1C(=O)c1ccc(Nc2ccc(Br)cc2N)cc1Cl [EO-1428]
2. CC(=O)OC[C@H]1O[C@@H]([S-])[C@H](OC(C)=O)[C@@H](OC(C)=O)[C@@H]1OC(C)=O.CCP(CC)CC.[Au+] [auranofin]
3. N[C@@H](Cc1cc(CP(=O)(O)O)cc(-c2ccccc2Cl)c1)C(=O)O [SDZ-220-581]

1. 83.4
2. 106
3. 101
